test system: UO-31 renal; assay: NCI tumour cell line growth inhibition, 48 h
REPORTED_ENDPOINT: GI50

COMPOUND	MEASURED_TARGET	REPORTED_ENDPOINT	MEASUREMENT
Cc1cc(N=Nc2ccccc2C)ccc1N	UO-31 renal	GI50	0.874 µM
Cc1cc(N(CCCNc2ccnc3cc(Cl)ccc23)Cc2ccco2)nc(N2CCN(C)CC2)n1	UO-31 renal	GI50	2.02 µM
COC(=O)c1cncc(/C=C/c2c(C)cc(O)cc2C)c1	UO-31 renal	GI50	14.5 µM
Cc1cc(C#Cc2ccc(C(C)(C)C)cc2)ccc1-n1c(/C=C/c2ccc(O)cc2O)nc2ccccc2c1=O	UO-31 renal	GI50	2.63 µM
COc1ncnc(NS(=O)(=O)c2ccc(N=C3C(=O)N(CN4CCN(c5c(F)cc6c(=O)c(C(=O)O)cn(C7CC7)c6c5OC)CC4C)c4ccc(Br)cc43)cc2)c1OC (stereo unspecified)	UO-31 renal	GI50	> 50 µM
CC(C)(Br)C(=O)C(Br)Br	UO-31 renal	GI50	5.5 µM
